# Target System: PDE4B (Homo sapiens, UniProt Q07343)
# Sequence (Q07343 whole entry, species assumed): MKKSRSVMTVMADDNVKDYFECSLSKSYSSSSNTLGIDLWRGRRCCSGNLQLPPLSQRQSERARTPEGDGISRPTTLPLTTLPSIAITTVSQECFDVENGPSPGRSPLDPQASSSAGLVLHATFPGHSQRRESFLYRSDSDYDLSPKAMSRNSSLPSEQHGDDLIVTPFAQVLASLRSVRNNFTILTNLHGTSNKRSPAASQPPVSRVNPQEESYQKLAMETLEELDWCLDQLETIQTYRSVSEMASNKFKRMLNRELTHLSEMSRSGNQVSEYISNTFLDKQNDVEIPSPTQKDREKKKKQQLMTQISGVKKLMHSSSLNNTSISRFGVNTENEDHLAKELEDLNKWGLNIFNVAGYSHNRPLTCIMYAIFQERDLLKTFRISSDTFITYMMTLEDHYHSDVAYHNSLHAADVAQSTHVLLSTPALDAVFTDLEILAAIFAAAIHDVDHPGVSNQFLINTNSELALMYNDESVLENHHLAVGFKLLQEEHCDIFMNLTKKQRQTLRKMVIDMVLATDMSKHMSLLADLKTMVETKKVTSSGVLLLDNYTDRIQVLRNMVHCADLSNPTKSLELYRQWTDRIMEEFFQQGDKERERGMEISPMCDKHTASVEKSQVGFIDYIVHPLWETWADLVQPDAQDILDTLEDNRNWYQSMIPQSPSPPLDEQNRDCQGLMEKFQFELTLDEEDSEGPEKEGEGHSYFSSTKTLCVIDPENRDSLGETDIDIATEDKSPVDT
# Assay Explanation: Scintillation Proximity Assay (SPA) of PDE4B enzyme activity ([H3]-cAMP cleavage)
# Format: biochemical
# Experimental Parameters: test substance 1 μM; one-hour incubation of [H3]-cAMP with PDE4B enzyme at 30° C.
Measured Quantity: inhibition at 1 µM (%)
Response body: numeric value in %, unit text excluded.

# Compound, Units Symbol, inhibition at 1 µM
records = [
    ("CS(=O)(=O)N1CC2(CCN(c3nc4c(c(NC5(CO)CC5)n3)[S+]([O-])CC4)CC2)c2ccccc21 (stereo not shown) [Example 30]", "%", 89),
    ("CC(C)[C@H](CO)Nc1nc(N2CCC(c3c[nH]cn3)CC2)nc2c1[S+]([O-])CC2 (stereo partly shown) [Example 13]", "%", 71),
    ("O=C1Nc2ccccc2C2(CCN(c3nc4c(c(Nc5cccc(F)c5)n3)[S+]([O-])CC4)CC2)O1 (stereo not shown) [Example 80]", "%", 94),
]

Moving on to the next compound.
Hi! What's the reported inhibition at 1 µM for [O-][S+]1CCc2nc(N3CCC(c4ccc(F)cc4F)CC3)nc(NC3CCOCC3)c21 (stereo not shown) [Example 90] on PDE4B (Homo sapiens, UniProt Q07343)?
92
